Consider the following compounds; for each one, report its MIC.
tested on: Hansenula anomala; assay: Serial dilution test, Minimum Inhibitory Concentration, Hansenula anomala (HNA); type: cell-based; conditions: total inhibition of mycelial growth, read-out: MIC (HNA)

[Q] What value of MIC has been reported for the following compound? CCOC(=O)/C=C(/OC)[C@H](C)[C@H](/C=C/c1csc(C(C)=NOC)n1)OC (mixture of isomers) [(E/Z)-(13/14)]
[A] 0.02 µg/mL

[Q] Thanks! And COC(=O)/C=C(/OC)[C@H](C)[C@H](/C=C/c1csc(C(C)OC(C)=O)n1)OC (some centres unmarked) [Example 20] ?
[A] 1.25 µg/mL

[Q] Thanks! And CO/C(=C/C(N)=O)[C@H](C)[C@H](/C=C/c1csc(C(C)=O)n1)OC [1:melithiazole C-amide, reference compound] ?
[A] > 10 µg/mL

[Q] Thanks! And CO/N=C(/C)c1nc(/C=C/[C@H](OC)[C@@H](C)/C(=C\C(=O)OC)OC)cs1 [8:(Z)-MCM] ?
[A] 0.08 µg/mL

[Q] Thanks! And COC(=O)/C=C(/OC)[C@H](C)[C@H](/C=C/c1csc(/C(C)=N/OCc2ccccc2)n1)OC [Example 10] ?
[A] 0.3 µg/mL
